# Test system: NCI-H226
# protocol-notes: NCI single-dose GI%, NSC lung
# Assay type: cell-based, human
# conditions-used: 10.0 μM in one dose
Would you mind telling me the reported GI% of each entry?
Report as: number unit

Read off the recorded GI% for Cc1ccc(C2CC(c3ccccc3)=NN2C(=O)c2ccc(S(C)(=O)=O)cc2)cc1 (stereo not shown) [Compound 18f]
17%

Read off the recorded GI% for CS(=O)(=O)c1ccc(C(=O)N2N=C(c3ccccc3)CC2c2ccccc2O)cc1 (stereo not shown) [Compound 18h]
15%

Read off the recorded GI% for CS(=O)(=O)c1ccc(C(=O)N2N=C(c3ccccc3)CC2c2ccccc2)cc1 (stereo not shown) [Compound 18a]
11%

Read off the recorded GI% for Cc1ccc(NC(=O)c2ccc(CN3CCN(C)CC3)cc2)cc1Nc1nccc(-c2cccnc2)n1 [Imatinib, reference compound]
10.6%

* * *

# system-name: HER2 (Homo sapiens)
# Sequence (P04626 23-1255): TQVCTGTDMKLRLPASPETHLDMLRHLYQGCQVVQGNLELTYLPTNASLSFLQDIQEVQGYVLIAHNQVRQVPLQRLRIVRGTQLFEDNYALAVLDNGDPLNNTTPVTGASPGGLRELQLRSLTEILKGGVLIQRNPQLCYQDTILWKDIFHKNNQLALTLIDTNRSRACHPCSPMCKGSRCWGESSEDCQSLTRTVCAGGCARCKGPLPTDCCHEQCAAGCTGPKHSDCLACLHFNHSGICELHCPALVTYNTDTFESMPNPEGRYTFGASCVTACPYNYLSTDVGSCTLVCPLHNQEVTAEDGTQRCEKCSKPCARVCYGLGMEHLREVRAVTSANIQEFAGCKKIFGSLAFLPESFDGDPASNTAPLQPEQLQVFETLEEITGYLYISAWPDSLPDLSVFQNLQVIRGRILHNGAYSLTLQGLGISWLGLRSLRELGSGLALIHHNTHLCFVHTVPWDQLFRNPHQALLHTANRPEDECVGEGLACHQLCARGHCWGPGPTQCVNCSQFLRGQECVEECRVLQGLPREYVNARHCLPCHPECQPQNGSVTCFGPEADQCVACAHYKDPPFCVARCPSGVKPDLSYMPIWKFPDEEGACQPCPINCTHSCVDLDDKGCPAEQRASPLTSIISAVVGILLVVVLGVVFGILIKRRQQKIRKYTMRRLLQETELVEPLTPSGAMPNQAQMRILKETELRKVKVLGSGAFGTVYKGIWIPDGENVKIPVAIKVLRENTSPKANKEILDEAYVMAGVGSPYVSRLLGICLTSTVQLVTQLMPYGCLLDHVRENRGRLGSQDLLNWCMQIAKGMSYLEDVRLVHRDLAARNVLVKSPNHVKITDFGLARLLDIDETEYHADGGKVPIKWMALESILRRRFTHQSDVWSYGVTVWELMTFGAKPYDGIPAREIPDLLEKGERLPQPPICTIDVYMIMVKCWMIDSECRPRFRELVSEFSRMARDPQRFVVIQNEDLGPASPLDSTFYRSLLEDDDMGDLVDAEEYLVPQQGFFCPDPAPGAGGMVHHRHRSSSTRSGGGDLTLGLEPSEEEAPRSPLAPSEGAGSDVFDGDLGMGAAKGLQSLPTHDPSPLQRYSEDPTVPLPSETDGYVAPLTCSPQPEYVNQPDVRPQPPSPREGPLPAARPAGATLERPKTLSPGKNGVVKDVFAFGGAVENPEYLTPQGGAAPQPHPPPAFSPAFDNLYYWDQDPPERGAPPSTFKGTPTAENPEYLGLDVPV
Would you mind telling me the reported pIC50 of each entry?
Scale for pIC50: -log10 of concentration given in mol/L; no unit attached.

Read off the recorded pIC50 for CS(=O)(=O)c1ccc(C(=O)N2N=C(c3ccccc3)CC2c2ccc(F)cc2)cc1 (stereo not drawn) [Compound 18c]
5.85

Read off the recorded pIC50 for Cc1ccc(C2=NN(C(=O)c3ccc(S(C)(=O)=O)cc3)C(c3ccc(C)cc3)C2)cc1 (stereo not drawn) [Compound 18g]
6.30

Read off the recorded pIC50 for CS(=O)(=O)c1ccc(C(=O)N2N=C(c3ccccc3)CC2c2ccccc2O)cc1 (stereo not drawn) [Compound 18h]
6.60

* * *

# System: SR
# protocol-notes: NCI single-dose GI%, leukemia
# Assay type: cell-based, human
# conditions-used: 10.0 μM in one dose
quantity-kind: GI%
Report as: number unit

Read off the recorded GI% for Cc1ccc(C2=NN(C(=O)c3ccc(S(C)(=O)=O)cc3)C(c3ccc(C)cc3)C2)cc1 (centres unmarked) [Compound 18g]
50%

Read off the recorded GI% for COc1ccc(C2CC(c3ccc(OC)cc3OC)=NN2C(=O)c2ccc(S(C)(=O)=O)cc2)cc1 (centres unmarked) [Compound 18o]
11%

Read off the recorded GI% for CS(=O)(=O)c1ccc(C(=O)N2N=C(c3ccccc3)CC2c2ccccc2)cc1 (centres unmarked) [Compound 18a]
13%

Read off the recorded GI% for CS(=O)(=O)c1ccc(C(=O)N2N=C(c3ccccc3)CC2c2ccccc2O)cc1 (centres unmarked) [Compound 18h]
30%

Read off the recorded GI% for Cc1ccc(NC(=O)c2ccc(CN3CCN(C)CC3)cc2)cc1Nc1nccc(-c2cccnc2)n1 [Imatinib, reference compound]
14.6%

* * *

# Tested on: MDA-MB-468
# protocol-notes: NCI single-dose GI%, breast
# Format: cell-based, human
# conditions-used: MDA-MB-468, breast; 10.0 μM in one dose
Could you please mark label 1 for values of GI% below 30% and label 0 for values at or above it?

Decide: GI% of COc1ccc(C2=NN(C(=O)c3ccc(S(C)(=O)=O)cc3)C(c3ccc(OC)c(OC)c3)C2)c(OC)c1 (stereo not drawn) [Compound 18p] strictly below 30%?
label 1

Decide: GI% of Cc1ccc(C2=NN(C(=O)c3ccc(S(C)(=O)=O)cc3)C(c3ccc(C)cc3)C2)cc1 (stereo not drawn) [Compound 18g] strictly below 30%?
label 0

Decide: GI% of CS(=O)(=O)c1ccc(C(=O)N2N=C(c3ccccc3)CC2c2ccccc2O)cc1 (stereo not drawn) [Compound 18h] strictly below 30%?
label 1

Decide: GI% of COc1ccc(C2=NN(C(=O)c3ccc(S(C)(=O)=O)cc3)C(c3cc(OC)c(OC)c(OC)c3)C2)cc1OC (stereo not drawn) [Compound 18q] strictly below 30%?
label 1

Decide: GI% of CS(=O)(=O)c1ccc(C(=O)N2N=C(c3ccccc3)CC2c2ccc(Cl)cc2)cc1 (stereo not drawn) [Compound 18b] strictly below 30%?
label 1

Decide: GI% of COc1ccc(C2=NN(C(=O)c3ccc(S(C)(=O)=O)cc3)C(c3ccccc3)C2)cc1 (stereo not drawn) [Compound 18k] strictly below 30%?
label 1

Decide: GI% of Cc1ccc(C2CC(c3ccccc3)=NN2C(=O)c2ccc(S(C)(=O)=O)cc2)cc1 (stereo not drawn) [Compound 18f] strictly below 30%?
label 1

Decide: GI% of COc1ccc(C2=NN(C(=O)c3ccc(S(C)(=O)=O)cc3)C(c3ccccc3)C2)c(OC)c1 (stereo not drawn) [Compound 18n] strictly below 30%?
label 0

* * *

# Tested on: SNB-75
# protocol-notes: NCI single-dose GI%, CNS
# Type: cell-based, human
# conditions-used: SNB-75, CNS; 10.0 μM in one dose
quantity-kind: GI%
Report as: number unit

Read off the recorded GI% for CS(=O)(=O)c1ccc(C(=O)N2N=C(c3ccccc3)CC2c2ccc(F)cc2)cc1 (stereo not shown) [Compound 18c]
14%

Read off the recorded GI% for CS(=O)(=O)c1ccc(C(=O)N2N=C(c3ccccc3)CC2c2ccc3c(c2)OCO3)cc1 (stereo not shown) [Compound 18m]
12%

Read off the recorded GI% for COc1ccc(C2CC(c3ccc(OC)cc3OC)=NN2C(=O)c2ccc(S(C)(=O)=O)cc2)cc1 (stereo not shown) [Compound 18o]
15%

Read off the recorded GI% for Cc1ccc(C2CC(c3ccccc3)=NN2C(=O)c2ccc(S(C)(=O)=O)cc2)cc1 (stereo not shown) [Compound 18f]
20%

* * *

# system-name: COX-2 (Ovis aries)
# Sequence (P79208 17-603): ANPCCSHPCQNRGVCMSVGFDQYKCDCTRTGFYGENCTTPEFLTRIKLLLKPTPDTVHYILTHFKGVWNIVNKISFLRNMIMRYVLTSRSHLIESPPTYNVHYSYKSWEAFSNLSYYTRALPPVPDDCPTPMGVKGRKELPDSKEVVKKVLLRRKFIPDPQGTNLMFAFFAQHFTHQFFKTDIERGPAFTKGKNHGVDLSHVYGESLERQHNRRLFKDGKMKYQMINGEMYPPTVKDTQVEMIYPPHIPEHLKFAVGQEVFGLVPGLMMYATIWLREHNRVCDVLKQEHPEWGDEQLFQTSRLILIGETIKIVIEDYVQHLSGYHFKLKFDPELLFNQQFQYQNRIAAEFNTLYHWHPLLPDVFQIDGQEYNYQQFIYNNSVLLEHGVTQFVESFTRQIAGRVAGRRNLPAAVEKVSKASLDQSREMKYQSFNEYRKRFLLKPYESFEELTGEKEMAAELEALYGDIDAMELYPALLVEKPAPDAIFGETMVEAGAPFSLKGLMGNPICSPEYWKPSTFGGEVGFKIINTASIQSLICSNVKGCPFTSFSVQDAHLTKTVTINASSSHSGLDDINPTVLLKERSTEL
quantity-kind: pIC50
Scale for pIC50: -log10 of concentration given in mol/L; no unit attached.

Read off the recorded pIC50 for CS(=O)(=O)c1ccc(C(=O)N2N=C(c3ccccc3)CC2c2ccc(F)cc2)cc1 (stereo not drawn) [Compound 18c]
3.90

Read off the recorded pIC50 for Cc1ccc(C2=NN(C(=O)c3ccc(S(C)(=O)=O)cc3)C(c3ccc(C)cc3)C2)cc1 (stereo not drawn) [Compound 18g]
4.03

Read off the recorded pIC50 for CS(=O)(=O)c1ccc(C(=O)N2N=C(c3ccccc3)CC2c2ccccc2O)cc1 (stereo not drawn) [Compound 18h]
4.71

* * *

quantity-kind: melting point

Read off the recorded melting point for COc1ccc(C2CC(c3ccc(OC)cc3OC)=NN2C(=O)c2ccc(S(C)(=O)=O)cc2)cc1 (centres unmarked) [Compound 18o]
268 to 270 °C

Read off the recorded melting point for COc1ccc(C2CC(c3ccccc3)=NN2C(=O)c2ccc(S(C)(=O)=O)cc2)cc1 (centres unmarked) [Compound 18j]
258 to 260 °C

Read off the recorded melting point for Cc1ccc(C2CC(c3ccccc3)=NN2C(=O)c2ccc(S(C)(=O)=O)cc2)cc1 (centres unmarked) [Compound 18f]
225 to 227 °C

Read off the recorded melting point for COc1ccc(C2=NN(C(=O)c3ccc(S(C)(=O)=O)cc3)C(c3cc(OC)c(OC)c(OC)c3)C2)cc1OC (centres unmarked) [Compound 18q]
150 to 152 °C

Read off the recorded melting point for CS(=O)(=O)c1ccc(C(=O)N2N=C(c3ccc(F)cc3)CC2c2ccccc2)cc1 (centres unmarked) [Compound 18d]
311 to 313 °C

Read off the recorded melting point for COc1ccc(C2=NN(C(=O)c3ccc(S(C)(=O)=O)cc3)C(c3ccc(OC)cc3)C2)cc1 (centres unmarked) [Compound 18l]
198 to 200 °C

Read off the recorded melting point for CS(=O)(=O)c1ccc(C(=O)N2N=C(c3ccccc3)CC2c2ccc3c(c2)OCO3)cc1 (centres unmarked) [Compound 18m]
155 to 157 °C

Read off the recorded melting point for CS(=O)(=O)c1ccc(C(=O)N2N=C(c3ccc(F)cc3)CC2c2ccc(F)cc2)cc1 (centres unmarked) [Compound 18e]
330 to 333 °C

Read off the recorded melting point for COc1ccc(C2=NN(C(=O)c3ccc(S(C)(=O)=O)cc3)C(c3ccc(OC)c(OC)c3)C2)c(OC)c1 (centres unmarked) [Compound 18p]
169 to 171 °C

Read off the recorded melting point for COc1ccc(C2=NN(C(=O)c3ccc(S(C)(=O)=O)cc3)C(c3ccccc3)C2)c(OC)c1 (centres unmarked) [Compound 18n]
216 to 218 °C

Read off the recorded melting point for CS(=O)(=O)c1ccc(C(=O)N2N=C(c3ccccc3)CC2c2ccc(Cl)cc2)cc1 (centres unmarked) [Compound 18b]
321 to 323 °C

Read off the recorded melting point for COc1ccccc1C1CC(c2ccccc2)=NN1C(=O)c1ccc(S(C)(=O)=O)cc1 (centres unmarked) [Compound 18i]
236 to 238 °C

Read off the recorded melting point for COc1ccc(C2=NN(C(=O)c3ccc(S(C)(=O)=O)cc3)C(c3ccccc3)C2)cc1 (centres unmarked) [Compound 18k]
226 to 228 °C

Read off the recorded melting point for CS(=O)(=O)c1ccc(C(=O)N2N=C(c3ccccc3)CC2c2ccccc2)cc1 (centres unmarked) [Compound 18a]
259 to 261 °C

* * *

# System: EKVX
# protocol-notes: NCI single-dose GI%, NSC lung
# Format: cell-based, human
# conditions-used: 10.0 μM in one dose
Would you mind telling me the reported GI% of each entry?
Kindly answer with a numeric value in %, unit omitted.

Read off the recorded GI% for Cc1ccc(C2CC(c3ccccc3)=NN2C(=O)c2ccc(S(C)(=O)=O)cc2)cc1 (centres unmarked) [Compound 18f]
13

Read off the recorded GI% for CS(=O)(=O)c1ccc(C(=O)N2N=C(c3ccc(F)cc3)CC2c2ccccc2)cc1 (centres unmarked) [Compound 18d]
16

Read off the recorded GI% for Cc1ccc(C2=NN(C(=O)c3ccc(S(C)(=O)=O)cc3)C(c3ccc(C)cc3)C2)cc1 (centres unmarked) [Compound 18g]
25

Read off the recorded GI% for COc1ccccc1C1CC(c2ccccc2)=NN1C(=O)c1ccc(S(C)(=O)=O)cc1 (centres unmarked) [Compound 18i]
12

Read off the recorded GI% for COc1ccc(C2CC(c3ccccc3)=NN2C(=O)c2ccc(S(C)(=O)=O)cc2)cc1 (centres unmarked) [Compound 18j]
12

Read off the recorded GI% for CS(=O)(=O)c1ccc(C(=O)N2N=C(c3ccccc3)CC2c2ccccc2O)cc1 (centres unmarked) [Compound 18h]
41

Read off the recorded GI% for Cc1ccc(NC(=O)c2ccc(CN3CCN(C)CC3)cc2)cc1Nc1nccc(-c2cccnc2)n1 [Imatinib, reference compound]
15.7

Read off the recorded GI% for CS(=O)(=O)c1ccc(C(=O)N2N=C(c3ccc(F)cc3)CC2c2ccc(F)cc2)cc1 (centres unmarked) [Compound 18e]
12
